Let's look at some molecules and their measured growth inhibition.
- Measurement Notes: NCI Yeast Anticancer Drug Screen. Data for the bub3 strain (AID 167)
- Experimental Parameters: S. cerevisiae bub3 mutant strain, hits give high values; at 50.0 µM unless noted
Compounds without any hit were thinned out: in the full panel of roughly 79,000, 15% have a hit.
Please state the figure in %; there is no need to write the unit.

Recorded growth inhibition, per entry:
>>> df
                                   molecule   val
0  Oc1ccc(O)c(CNc2ccc(C(O)C(F)(F)F)cc2)c1 (stereo not drawn)  22.1
1                        COC(=O)/C(C#N)=N/O  -7.7

Could you now consider this next molecule?
Req: Which growth inhibition is reported for this molecule? N#CCC(=O)OCCCc1ccccc1
Resp: 2.65
